test: Study B: 17-AAG pharmacokinetics in subcutaneous interstitial fluid (tissue cages, HPLC); format: in vivo; settings: both sexes, dog, subcutaneous interstitial fluid, iv, 150 mg/m2, Study B, dogs, subcutaneous interstitial fluid, 1st administration of 150 mg/m^2 IV, mean ± SD; read-out: AUC 0–4 h
Observed property: AUC(0-t) (ng·h/mL)
Your answer should be a plain number; it is taken to be in ng·h/mL.

In: I am curious: what AUC(0-t) value has been reported for C=CCNC1=C2C[C@@H](C)C[C@H](OC)[C@H](O)[C@@H](C)/C=C(\C)[C@H](OC(N)=O)[C@@H](OC)/C=C\C=C(/C)C(=O)NC(=CC1=O)C2=O ?
Out: 1820
